# Study system: 12-LO (Sus scrofa, UniProt P16469)
# Construct: purchased Cayman Chemical Company
# Sequence (P16469 whole entry): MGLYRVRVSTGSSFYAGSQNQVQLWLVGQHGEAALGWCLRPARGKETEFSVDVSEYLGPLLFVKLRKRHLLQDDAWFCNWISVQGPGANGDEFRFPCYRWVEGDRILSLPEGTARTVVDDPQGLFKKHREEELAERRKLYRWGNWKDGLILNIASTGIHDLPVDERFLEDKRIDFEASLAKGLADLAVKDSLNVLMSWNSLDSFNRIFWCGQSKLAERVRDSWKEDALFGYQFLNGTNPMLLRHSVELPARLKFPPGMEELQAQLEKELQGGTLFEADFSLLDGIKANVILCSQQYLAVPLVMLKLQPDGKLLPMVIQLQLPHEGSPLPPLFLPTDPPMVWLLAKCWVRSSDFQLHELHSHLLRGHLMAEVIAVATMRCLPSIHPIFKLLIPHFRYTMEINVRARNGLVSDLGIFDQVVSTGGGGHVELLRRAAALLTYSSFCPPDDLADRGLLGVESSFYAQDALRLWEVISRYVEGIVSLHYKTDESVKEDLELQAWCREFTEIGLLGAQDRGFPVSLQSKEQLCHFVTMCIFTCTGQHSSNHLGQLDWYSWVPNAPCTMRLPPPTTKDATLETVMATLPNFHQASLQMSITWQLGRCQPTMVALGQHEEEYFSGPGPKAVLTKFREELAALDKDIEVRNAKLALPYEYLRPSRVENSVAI
# Test description: Effect on 12-LO catalysed oxidation of arachidonic acid
# Format: biochemical, porcine
Measured quantity: Effect on 12-LO catalysed oxidation of AA

INSERT INTO measurements (compound, test_result) VALUES
  ('CCCCCCCCCCCCCCCCCC[N+](=O)[O-]', 'Nil'),
  ('CCCCCCCCCCCCCCCCCC(CCC(=O)O)(CCC(=O)O)[N+](=O)[O-]', 'Activatory'),
  ('CCCCCCCCCCCCCCCCCC(CCC(=O)O)[N+](=O)[O-] (stereo not drawn)', 'Activatory'),
  ('CCCCC/C=C\C/C=C\C/C=C\C/C=C\CCCC[N+](=O)[O-]', 'Nil');

====

# Study system: 15-LO (Glycine max)
# Construct: purchased Sigma Chemical Company
# Sequence (P08170 whole entry): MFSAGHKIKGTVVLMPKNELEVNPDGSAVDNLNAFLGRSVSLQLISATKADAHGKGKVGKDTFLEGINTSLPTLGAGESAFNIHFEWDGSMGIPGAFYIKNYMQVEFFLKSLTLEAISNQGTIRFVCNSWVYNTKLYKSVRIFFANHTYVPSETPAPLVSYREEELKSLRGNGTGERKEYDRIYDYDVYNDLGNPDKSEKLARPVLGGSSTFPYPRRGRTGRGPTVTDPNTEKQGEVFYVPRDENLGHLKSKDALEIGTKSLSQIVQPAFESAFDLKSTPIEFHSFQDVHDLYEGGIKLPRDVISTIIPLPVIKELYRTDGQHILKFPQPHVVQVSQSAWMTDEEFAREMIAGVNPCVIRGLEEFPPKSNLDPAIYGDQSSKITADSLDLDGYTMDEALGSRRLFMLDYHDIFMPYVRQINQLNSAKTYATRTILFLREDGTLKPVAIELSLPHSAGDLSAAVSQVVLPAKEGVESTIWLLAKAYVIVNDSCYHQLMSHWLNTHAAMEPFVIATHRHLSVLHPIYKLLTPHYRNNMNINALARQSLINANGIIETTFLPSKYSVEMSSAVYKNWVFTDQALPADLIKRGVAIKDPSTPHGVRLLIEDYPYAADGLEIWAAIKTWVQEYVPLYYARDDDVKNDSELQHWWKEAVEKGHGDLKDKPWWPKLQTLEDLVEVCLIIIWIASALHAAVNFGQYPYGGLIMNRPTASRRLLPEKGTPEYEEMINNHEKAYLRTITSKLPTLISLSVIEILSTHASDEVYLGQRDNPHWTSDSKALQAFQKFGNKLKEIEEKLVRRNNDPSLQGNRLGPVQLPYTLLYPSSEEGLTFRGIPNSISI
# Test description: Effect on 15-LO catalysed oxidation of arachidonic acid
# Format: biochemical, soybean
Measured quantity: Effect on 15-LO catalysed oxidation of AA

INSERT INTO assay_data (compound, test_result) VALUES
  ('CCCCC/C=C\C/C=C\C/C=C\CCCCC[N+](=O)[O-] [Lx3, (z,z,z)-1-Nitro-6,9,12-octadecatriene]', 'Nil'),
  ('CCCCCCCCCCCCCCCCCC[N+](=O)[O-]', 'Nil');

====

Recorded Compound (%) recovered following autoxidation with arachidonic acid for the following compounds
# Test description: Petri-dish thin film autoxidation of arachidonic acid with thia fatty acids and sulfides (HPLC)
# Recorded conditions: ratio arachidonic acid:compound 1:1, 3 days

Record excerpt, results attached:
INSERT INTO assay_data (compound, test_result) VALUES
  ('CCCCC/C=C\C/C=C\C/C=C\C/C=C\CCCCSCCC(=O)O [Compound 19]', '99%'),
  ('CC/C=C\C/C=C\C/C=C\CCCCCCCCSCCC(=O)O [Compound 112]', '97%'),
  ('CCCCC/C=C\C/C=C\C/C=C\C/C=C\CCCCSCCC [Compound 110]', '99%');

Problem: Requested field: Compound (%) recovered following autoxidation with arachidonic acid. Item: CCCCCCCCCCCCCCSCC(=O)O [Compound 109, 2-Tetradecylthioacetic acid]
Solution: 17%

Problem: Requested field: Compound (%) recovered following autoxidation with arachidonic acid. Item: CCCCCCCCCCCCCCSCCC(=O)O [Compound 108]
Solution: 86%

Problem: Requested field: Compound (%) recovered following autoxidation with arachidonic acid. Item: CC/C=C\C/C=C\CCSCCC(=O)O [Compound 106]
Solution: 98%

Problem: Requested field: Compound (%) recovered following autoxidation with arachidonic acid. Item: CCCCCCCCCCCCCCSCCC [Compound 111, propyltetradecyl sulfide]
Solution: 92%

====

Recorded Compound (%) recovered following autoxidation with arachidonic acid for the following compounds
# Test description: Petri-dish thin film autoxidation of arachidonic acid with thia fatty acids and sulfides (HPLC)
# Recorded conditions: ratio arachidonic acid:compound 1:1, 2 days
Only the number, expressed in %, is required.

Record excerpt, results attached:
INSERT INTO results (compound, test_result) VALUES
  ('CCCCCCCCCCCCCCSCCC(=O)O [Compound 108]', 91),
  ('CC/C=C\C/C=C\C/C=C\CCCCCCCCSCCC(=O)O [Compound 112]', 98),
  ('CCCCC/C=C\C/C=C\C/C=C\C/C=C\CCCCSCCC(=O)O [Compound 19]', 100),
  ('CCCCC/C=C\C/C=C\C/C=C\C/C=C\CCCCSCC(=O)O [Compound 18]', 7),
  ('CCCCCCCCCCCCCCSCC(=O)O [Compound 109, 2-Tetradecylthioacetic acid]', 16);

Problem: Requested field: Compound (%) recovered following autoxidation with arachidonic acid. Item: CC/C=C\C/C=C\CCSCCC(=O)O [Compound 106]
Solution: 96

Problem: Requested field: Compound (%) recovered following autoxidation with arachidonic acid. Item: CCCCCCCCCCCCCCSCCC [Compound 111, propyltetradecyl sulfide]
Solution: 91

====

# Test description: Petri-dish thin film autoxidation of arachidonic acid with thia fatty acids and sulfides (HPLC)
# Recorded conditions: 1:1 ratio with arachidonic acid
Measured quantity: Antioxidant effect on autoxidation of arachidonic acid (in words)

INSERT INTO measurements (compound, test_result) VALUES
  ('CCCCCCCCCCCCCCSCCC [Compound 111, propyltetradecyl sulfide]', 'effectively inhibit'),
  ('CCCCC/C=C\C/C=C\C/C=C\C/C=C\CCCCSCCC [Compound 110]', 'effectively inhibit');

====

# Test description: Petri-dish thin film autoxidation of arachidonic acid with thia fatty acids and sulfides (HPLC)
# Recorded conditions: ratio arachidonic acid:compound 1:1, 5 days
Measured quantity: Compound (%) recovered following autoxidation with arachidonic acid
Only the number, expressed in %, is required.

INSERT INTO assay_data (compound, test_result) VALUES
  ('CC/C=C\C/C=C\CCSCCC(=O)O', 97),
  ('CC/C=C\C/C=C\C/C=C\CCCCCCCCSCCC(=O)O', 97),
  ('CCCCC/C=C\C/C=C\C/C=C\C/C=C\CCCCSCCC(=O)O', 98),
  ('CCCCCCCCCCCCCCSCCC(=O)O', 44);

Problem: Requested field: Compound (%) recovered following autoxidation with arachidonic acid. Item: CCCCCCCCCCCCCCSCCC [Compound 111, propyltetradecyl sulfide]
Solution: 92

Problem: Requested field: Compound (%) recovered following autoxidation with arachidonic acid. Item: CCCCCCCCCCCCCCSCC(=O)O
Solution: 17

====

Recorded Percentage of compound recovered (with arachidonic acid) for the following compounds
# Test description: Thin film autoxidation of arachidonic acid with compounds 16-19 (HPLC)
# Recorded conditions: ratio 1:1, 10% AIBN 60 h
Form field: result (number plus unit)

INSERT INTO results (smiles_input, test_result) VALUES
  ('CC/C=C\C/C=C\C/C=C\CCCCCCCCOCC(=O)O', '49%');

Problem: Requested field: Percentage of compound recovered (with arachidonic acid). Item: CCCCC/C=C\C/C=C\C/C=C\CCCCCOCC(=O)O
Solution: 11%

Problem: Requested field: Percentage of compound recovered (with arachidonic acid). Item: CCCCC/C=C\C/C=C\C/C=C\C/C=C\CCCCSCC(=O)O
Solution: 57%

Problem: Requested field: Percentage of compound recovered (with arachidonic acid). Item: CCCCC/C=C\C/C=C\C/C=C\C/C=C\CCCCSCCC(=O)O
Solution: 96%

====

# Test description: Thin film autoxidation of arachidonic acid with compounds 16-19 (HPLC)
# Recorded conditions: ratio 1:1, no additive 70 h
Measured quantity: Percentage of compound recovered (with arachidonic acid) (%)
Only the number, expressed in %, is required.

INSERT INTO assay_data (smiles_input, test_result) VALUES
  ('CC/C=C\C/C=C\C/C=C\CCCCCCCCOCC(=O)O', 102),
  ('CCCCC/C=C\C/C=C\C/C=C\C/C=C\CCCCSCC(=O)O', 99),
  ('CCCCC/C=C\C/C=C\C/C=C\CCCCCOCC(=O)O', 88);

Next, consider the following molecule.
Problem: Requested field: Percentage of compound recovered (with arachidonic acid). Item: CCCCC/C=C\C/C=C\C/C=C\C/C=C\CCCCSCCC(=O)O
Solution: 98

====

# Test description: Petri-dish thin film autoxidation of arachidonic acid with thia fatty acids and sulfides (HPLC)
# Recorded conditions: ratio arachidonic acid:compound 1:1, 5 days
# Description: A stock solution in dichioromethane (2 ml) containing arachidonic acid 1 (18 mg) and 3-[(3Z,6Z)-nona-3,6dienylthio]propionic acid 106 (18 mg) was prepared with lauric acid (18 mg) as an internal standard. […] After evaporation of the solvent, the residue was dissolved in the HPLC mobile phase (100 μl) and 10% of the solution was analysed by HPLC using a reverse phase column (octadecylsilane) (4.6 mm×250 mm, 3 μm) and a refractive index detector. […]
Measured quantity: Arachidonic acid (%) recovered following autoxidation in the presence of the compound
Form field: result (number plus unit)

Record excerpt, results attached:
INSERT INTO results (molecule, test_result) VALUES
  ('CCCCCCCCCCCCCCSCCC(=O)O', '30%'),
  ('CC/C=C\C/C=C\CCSCCC(=O)O', '100%'),
  ('CCCCC/C=C\C/C=C\C/C=C\C/C=C\CCCCSCCC(=O)O', '99%'),
  ('CC/C=C\C/C=C\C/C=C\CCCCCCCCSCCC(=O)O', '99%'),
  ('CCCCCCCCCCCCCCSCCC [Compound 111, propyltetradecyl sulfide]', '98%');

Next, consider the following molecule.
Problem: Requested field: Arachidonic acid (%) recovered following autoxidation in the presence of the compound. Item: CCCCC/C=C\C/C=C\C/C=C\C/C=C\CCCCSCC(=O)O
Solution: 7%

====

Recorded Arachidonic acid (%) recovered following autoxidation in the presence of the compound for the following compounds
# Test description: Petri-dish thin film autoxidation of arachidonic acid with thia fatty acids and sulfides (HPLC)
# Recorded conditions: ratio arachidonic acid:compound 1:1, 3 days
Only the number, expressed in %, is required.

Record excerpt, results attached:
INSERT INTO measurements (compound, unit_annotation, test_result) VALUES
  ('CCCCCCCCCCCCCCSCCC(=O)O', '%', 79),
  ('CCCCC/C=C\C/C=C\C/C=C\C/C=C\CCCCSCC(=O)O', '%', 10),
  ('CCCCCCCCCCCCCCSCCC [Compound 111, propyltetradecyl sulfide]', '%', 98),
  ('CCCCC/C=C\C/C=C\C/C=C\C/C=C\CCCCSCCC(=O)O', '%', 99),
  ('CCCCC/C=C\C/C=C\C/C=C\C/C=C\CCCCSCCC', '%', 100),
  ('CC/C=C\C/C=C\CCSCCC(=O)O', '%', 99);

Next, consider the following compound.
Problem: Requested field: Arachidonic acid (%) recovered following autoxidation in the presence of the compound. Item: CC/C=C\C/C=C\C/C=C\CCCCCCCCSCCC(=O)O
Solution: 98
